Test system: nude mice, LX-1 lung xenograft intrarenal, tumor weight T/C
Assay Explanation: NCI In Vivo Anticancer Drug Screen. Data for tumor model Human Lung LX-1 Xenograft (intrarenal inoculation) in NU/NU Swiss (nude) mice
Experimental Context: endpoint: mean tumor weight change; dose: 100.0 mg/kg/injection; schedule: Q04DX003 (sc); vehicle: saline with Tween-80; higher = larger tumour
Results filed as inconclusive are left out.
# T/C listing for each entry below

Some solved entries appear below for comparison.
# get_value(readout='T/C', item= O/N=C/c1ccccc1O.O/N=C/c1ccccc1O.[Cu] ) 72 % of control

T/C lookup needed for O=C(Nc1cccc2c(OC(=O)C(Cl)Cl)c(N=Nc3ccc(S(=O)(=O)Nc4nccs4)cc3)cc(N=Nc3ccc(S(=O)(=O)Nc4nccs4)cc3)c12)C(Cl)Cl (tested in a mixture with another compound) , thanks. 116 % of control

Would you mind telling me what T/C value was observed for C1OCN2CSCC12 (stereo not drawn) ? 103 % of control

# get_value(readout='T/C', item= CC1(C)COCN1COC1CCCCC1 ) 76 % of control

What value of measured T/C is listed for O=C1NC(=O)C2C3C=CC(C12)C1C2C(=O)NC(=O)C2C31 (stereo not drawn) ? 123 % of control

Continuing:
Fill in: T/C of Clc1ccc2nnnn2n1 is ___ 88 % of control

Please look up its T/C: CCN(CC)CCOC(=O)Cc1cccc2c(=O)cc(-c3ccccc3)oc12 112 % of control

Requested field: T/C. Item: Nc1cc2c3c(cccc3c1)C(=O)N(CCN1CCCC1)C2=O 79 % of control

Using the record for CC1=C(/C=C/C(C)=C/C=C/C(C)=C/CO)C(C)(C)CCC1 , report its T/C. 150 % of control

Give the measured T/C of CCc1ccc(C2=C(O)C(=O)C(c3ccc(CC)cc3)=C(O)C2=O)cc1 . 83 % of control

* * *

Test system: nude mice, LX-1 lung xenograft intrarenal, tumor weight T/C
Assay Explanation: NCI In Vivo Anticancer Drug Screen. Data for tumor model Human Lung LX-1 Xenograft (intrarenal inoculation) in NU/NU Swiss (nude) mice
Experimental Context: endpoint: mean tumor weight change; dose: 800.0 mg/kg/injection; schedule: Q04DX003 (sc); vehicle: saline with Tween-80; higher = larger tumour
Records with an inconclusive call do not appear.
Quantity Measured: T/C

Some molecules with known T/C results, for comparison:
For the molecule COc1cc2c[n+](C)c3c4cc5c(cc4ccc3c2cc1OC)OCO5 , what T/C is on record? 109 % of control

Field request: T/C | item: CCOC(=O)[C@]1(Br)CC[C@@]1(Br)C(=O)OCC 107 % of control

Please give the measured T/C for this molecule: CC1(c2ccc(Cl)cc2)OC(=O)C(=Cc2ccc([N+](=O)[O-])s2)C(=O)O1 (stereo not given) 80 % of control

Query (molecule): C=C1C(=O)OC2CC(C)C3C4OC4C(O)C3(C)C(O)C12 (stereo not given) ; field requested: T/C 75 % of control

# context switch: different molecule, same T/C
Requested read-out: T/C. Entry: COc1ccc(C(=O)c2no[n+]([O-])c2C(=O)c2ccc(OC)cc2)cc1 109 % of control

* * *

Tested on: nude mice, LX-1 lung xenograft intrarenal, tumor weight T/C
Assay Explanation: NCI In Vivo Anticancer Drug Screen. Data for tumor model Human Lung LX-1 Xenograft (intrarenal inoculation) in NU/NU Swiss (nude) mice
Experimental Context: endpoint: mean tumor weight change; dose: 100.0 mg/kg/injection; schedule: Q04DX003 (sc); vehicle: Klucel (hydroxypropylcellulose) (HPC); higher = larger tumour
Description: The antitumor activity of compounds was measured in mice bearing transplantable tumors. Survival or tumor size were measured and the results are expressed as the measurement made in the treated group (T) divided by the measurement made in the vehicle treated control group (C). The tumor model used in this assay is Human Lung LX-1 Xenograft (intrarenal inoculation) in NU/NU Swiss (nude) mice
Records with an inconclusive call do not appear.
Reported T/C values are given for each entry in this list.

Solved entries:
Entry C=CC(C)(C)n1cc(C2=C(O)C(=O)C(c3cn(C(C)(C)C=C)c4ccccc34)=C(O)C2=O)c2ccccc21 has what T/C? 71 % of control

// returns reported T/C for input O=C(O)/C=C/C(=O)Nc1ccc(Cl)c(Cl)c1 95 % of control

Quick check: T/C of O=C(C#Cc1ccccc1)c1ccccc1 ? 113 % of control

Find the recorded T/C belonging to CN(C(=S)S(=O)(=O)C12CC3CC(CC(C3)C1)C2)c1ccccc1 and report it. 161 % of control

Return reported T/C; argument: COc1ccc2c(c1)CCC(c1ccccc1)=C2c1ccc(OCCN2CCCC2)cc1 116 % of control

Which T/C value is on record for CSc1cc(C)[o+]c(C)c1 ? 87 % of control

Now for another entry.
So what's the measured T/C for this one? COc1nc(=O)n(C2C=CC(=O)O2)cc1F (configuration not stated) 37 % of control
